Measured % binding relative to ACI-80-Kϕ, listed per entry for reference.
# Measured target: T1, Aβ1–42 fibrils (UniProt P05067 672-713)
# T1 construct: amyloid-β peptide Aβ1–42, cut from the amyloid precursor protein (APP), in fibrillar form; Aggregated (fibrillar) state of the same peptide as m15; also called fibrillar Aß1–42; Aβ fibrils; source: bought: JPT Biotech or Bachem AG (HPLC purified peptide); fibrils formed at 37°C (7 days in PBS pH 7.4 for SPR; five days in 50 mM Tris-HCl pH 7.4 for ELISA)
# T1 sequence (P05067 672-713): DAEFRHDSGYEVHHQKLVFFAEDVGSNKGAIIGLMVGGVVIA
# Procedure text: ELISA; Aβ1–42 fibrils coated on the plate (10 µg/ml, bicarbonate-carbonate buffer pH 9.6); D-compounds from 10 µg/ml, 2 h at 37°C; detected by anti-fluorescein isothiocyanate-AP, pNPP 2.5 h
# Test parameters: both partners purified
Square brackets hold non-standard residues; d marks the D form. Primed or numbered codes have the meaning given here. Ends that are not written are not given here. FITC′ = fluorescein isothiocyanate (ϕ)
The reply should be a number in %, with the unit left off.

Requested field: % binding relative to ACI-80-Kϕ. Item: [dQ][dS][dH][dY][dR][dH][dI][dS][dP][dA][dQ][dK][dK](FITC′) (D-enantiomeric derivative of ACI-80 (D1): V12K, added C-terminal lysine; also called D1-V12K-Kϕ; source: synthetic peptide (JPT Peptide Technologies GmbH, Berlin)) [ACI-87-Kϕ]
103

Requested field: % binding relative to ACI-80-Kϕ. Item: [dS][dH][dY][dR][dH][dI][dS][dP][dA][dQ][dK][dK](FITC′) (D-enantiomeric derivative of ACI-80 (D1): N-terminal glutamine deleted (Q1X), V12K, added C-terminal lysine; also called D1-Q1X-V12K-Kϕ; source: synthetic peptide (JPT Peptide Technologies GmbH, Berlin)) [ACI-88-Kϕ]
198

Requested field: % binding relative to ACI-80-Kϕ. Item: [dS][dH][dY][dR][dH][dI][dS][dP][dA][dQ][dV][dK](FITC′) (D-enantiomeric derivative of ACI-80 (D1): N-terminal glutamine deleted (Q1X), added C-terminal lysine; also called D1-Q1X-Kϕ; source: synthetic peptide (JPT Peptide Technologies GmbH, Berlin)) [ACI-82-Kϕ]
142

Requested field: % binding relative to ACI-80-Kϕ. Item: [dQ][dS][dH][dY][dR][dH][dI][dS][dP][dA][dQ][dV][dK](FITC′) (D-enantiomeric peptide ACI-80 (D1), selected by mirror image phage display on aggregated Aβ1–42, with an added C-terminal lysine; also called D1-Kϕ; source: synthetic peptide (JPT Peptide Technologies GmbH, Berlin)) [ACI-80-Kϕ]
100

Field: next binder
Requested field: % binding relative to ACI-80-Kϕ. Item: [dP][dS][dH][dY][dR][dH][dI][dS][dP][dA][dQ][dK][dK](FITC′) (also: [19F]-4-fluorobenzoyl label, place not given here, D-enantiomeric derivative of ACI-80 (D1): Q1P, V12K, added C-terminal lysine, fluorinated; also called D1-Q1P-V12K-K[^19F]ϕ; source: synthetic peptide, reacted with [^19F]-N-succinimidyl-4-fluorobenzoate (SFB), HPLC purified) [[^19F]-ACI-89-Kϕ]
207
